- Test system: A498 renal
- experiment notes: NCI tumour cell line growth inhibition, 48 h
measured metric: GI50

Look over these answered cases.
{"compound": "CN1CCN(c2nc(NCCCNc3ccnc4cc(Cl)ccc34)c3ccccc3n2)CC1", "GI50": "12.9 µM"}
{"compound": "CCc1cc2ncc(CN3CCN(c4ccc(C(=O)NC)nc4)CC3)cc2[nH]c1=O", "GI50": "> 100 µM"}
{"compound": "CCCCNC(=O)Oc1ccc(/C(=C(/C)Cc2ccc(OC)cc2)c2ccc(OCCN3CCCC3)cc2)cc1", "GI50": "4.7 µM"}
{"compound": "C[C@]12CC[C@H]3[C@@H](C[C@@H]4SC(Nc5ccccc5)=N[C@@]45CC(O)CC[C@]35C)[C@@H]1CCC2O (stereo partly specified)", "GI50": "2.16 µM"}
{"compound": "CCCCC(=O)N/N=C/c1c(O)ccc2ccccc12", "GI50": "7.71 µM"}

GI50 lookup needed for `OCCNCCCOc1ccc2ncnc(Nc3ccc(Oc4cccc(C(F)(F)F)c4)c(Cl)c3)c2c1` , thanks. 1.72 µM

----------
Listed next: entries and their corresponding TGI.
- System: SK-OV-3 ovarian
- experiment notes: NCI tumour cell line growth inhibition, 48 h
Numeric answer only, unit µM assumed.

{"compound": "O=c1c(NO)c([N+](=O)[O-])cnn1-c1ccccc1", "TGI, µM": 13.3}

Recorded TGI of C=C(C)C(O)C(O)C[C@@H](C)C1CC[C@]23C[C@]12CCC1[C@@]2(C)CCC(OC(C)=O)C(C)(C)C2CC(OC2OC(CO)C(O)C(O)C2O)[C@]13C (stereo not given in full) , please. 45.7

Given the entry `COc1cc(Nc2nnc3n2S(=O)(=O)c2cc(C)c(Cl)cc2S3)cc(OC)c1` , report its measured TGI. 31.4

Dear colleague, I am looking for the recorded TGI of the following compound: `N=C(N)c1ccc(NCCOCCNc2ccc(C(=N)N)cc2)cc1` 51.7

Would you mind telling me what TGI value was observed for `CN1CCN(c2nc(NCCCNc3ccnc4cc(Cl)ccc34)c3ccccc3n2)CC1` ? 22.5

// query TGI value for entry `N#Cc1c(Cl)nc2ccccc2c1N=[N+]=[N-]` 29

----------
- System: 786-0 renal
- experiment notes: NCI tumour cell line growth inhibition, 48 h
measured metric: TGI

Guide cases for TGI, answers given:
{"molecule": "O=C(Cc1nc2ncccc2[nH]c1=O)c1c[nH]c2ccccc12", "result": "40.5 µM"}
{"molecule": "[O-][N+]1=NC(c2ccccc2)=C1c1ccccc1", "result": "> 50 µM"}

Form field - read-out: TGI; system: 786-0 renal; submitted item: `COc1ccc2c(c1)CCCN2S(=O)(=O)c1ccccc1[N+](=O)[O-]` > 100 µM

----------
- System: LXFL 529 NSCLC
- experiment notes: NCI tumour cell line growth inhibition, 48 h
measured metric: TGI

Answered cases to consult:
{"compound": "CSc1nc(NC2OC(COC(C)=O)C(OC(C)=O)C(OC(C)=O)C2OC(C)=O)c(-c2csc(N)n2)c(=O)n1C (stereo not drawn)", "TGI": "> 100 µM"}
{"compound": "NC(=O)N/N=C(/Cc1nc2ccc(C(=O)c3ccccc3)cc2[nH]c1=O)C(=O)Nc1ccc(C(F)(F)F)cc1[N+](=O)[O-]", "TGI": "> 100 µM"}

Would you kindly look at the next entry?
What measured TGI goes with `Cc1ccc(-c2cc(=O)c3cc(C)c(C)c(C(=O)O)c3o2)cc1N` ? > 100 µM
